# Lookup of reported pIC50 keyed by entry
# assayed-target: Human carbonic anhydrase II (hCA-II) (Homo sapiens (Human))
# protocol-description: Human carbonic anhydrase-II inhibition assay (absorbance, 4-nitrophenyl acetate substrate)
# Type: biochemical
# applied-conditions: hCA II 8 nM, 4-NPA 2.5 mM, absorbance 340 nm, room temperature 1 hour; read-out: CA-II IC50
Please express pIC50 as -log10 of the molar concentration.

compound	reported-metric	result
CC(C)(C)C(=O)Nc1cc(C(F)(F)F)cnc1COC(=O)N1CC2=C(C1)CN(C(=O)c1ccc(S(N)(=O)=O)c(F)c1)C2 [Example 1.03]	pIC50	8.05
CC(C)(C)C(=O)Nc1cc(Cl)cnc1COC(=O)N1CC2=C(C1)CN(C(=O)c1ccc(S(N)(=O)=O)c(F)c1)C2 [Example 1.13]	pIC50	7.69

The record that follows has no pIC50 shown yet.
Lookup: Name the recorded pIC50 for CC(C)(C)C(=O)Nc1ccc(Cl)nc1COC(=O)N1CC2=C(C1)CN(C(=O)c1ccc(S(N)(=O)=O)c(F)c1)C2 [Example 1.21] .
Found: 8.52
